- test method notes: In vitro human hepatocyte stability
- Assay type: in vitro ADME
Assign Condition met whenever clint does not fall below 30 uL/min/1E6 cells; assign Condition not met whenever it does.

Does clint meet or surpass 30 uL/min/1E6 cells for COc1ccc([C@H](Cc2nnn[nH]2)NC(=O)c2ncnc3[nH]ccc23)cc1 [ASAP-0015381] ? Condition not met

Does clint meet or surpass 30 uL/min/1E6 cells for Cn1ncc(-c2cc3c(N[C@@H](c4ccc5c(n4)OCCO5)C(C)(C)C)ncnc3[nH]2)c1C#N [ASAP-0011221] ? Condition met

Does clint meet or surpass 30 uL/min/1E6 cells for CNCc1cc(-c2cc3c(N[C@@H](c4ccc5c(c4)S(=O)(=O)CCC5)C(C)C)ncnc3[nH]2)co1 [ASAP-0011176] ? Condition not met

Does clint meet or surpass 30 uL/min/1E6 cells for CC(C)[C@H](Nc1ncnc2[nH]c(-c3cnn(C)c3C#N)cc12)c1ccc2c(n1)OCCO2 [ASAP-0010715] ? Condition not met

Does clint meet or surpass 30 uL/min/1E6 cells for CC(C)[C@H](Nc1ncnc2[nH]ccc12)c1ccc2c(c1)S(=O)(=O)CCC2 [ASAP-0008674] ? Condition not met

Does clint meet or surpass 30 uL/min/1E6 cells for C[C@H](C(=O)O)[C@@H](NC(=O)c1ncnc2[nH]ccc12)c1ccc(Br)cc1 [ASAP-0014722] ? Condition not met

Does clint meet or surpass 30 uL/min/1E6 cells for CC(C)[C@@H](Nc1ncnc2[nH]c(-c3cnn(C)c3C#N)cc12)c1ccc2c(n1)OCCO2 [ASAP-0010716] ? Condition met

----------
Kindly state perc_recovery_a_to_b_mean for each of the entries shown.
- test method notes: Permeability Papp (AB) MDR1/MDCKII
- stated conditions: In vitro MDR1-MDCKII permeability, recovery A to B, mean
The reply should contain only the number, in %.

Form: molecule = Cc1nn(C)cc1-c1cc2c(NC(c3ccc4c(c3)S(=O)(=O)CCC4)C(C)C)ncnc2[nH]1 (centres unmarked) ; perc_recovery_a_to_b_mean = 77.0

Form: molecule = CCNC(=O)c1cc2c(N[C@H](c3ccc4c(c3)S(=O)(=O)CCC4)C(C)C)ncnc2[nH]1 (racemic) ; perc_recovery_a_to_b_mean = 87.2

Form: molecule = O=C(Nc1ccccc1)Nc1ccc(C(=O)NC2c3cccc(O)c3CC2C(=O)O)cc1 (centres unmarked) ; perc_recovery_a_to_b_mean = 91.0

Form: molecule = CC(C)C(Nc1ncnc2[nH]c(C(=O)NC3CCN(C)C3)cc12)c1ccc2c(c1)S(=O)(=O)CCC2 (centres unmarked) ; perc_recovery_a_to_b_mean = 94.6

Form: molecule = Cn1ncc(-c2cc3c(N[C@@H](c4ccc5c(n4)OCCO5)C(C)(C)C)ncnc3[nH]2)c1C#N ; perc_recovery_a_to_b_mean = 84.8

Form: molecule = CNC(=O)c1cc2c(N[C@@H](c3ccc4c(c3)NC(=O)CO4)C(C)C)ncnc2[nH]1 [ASAP-0011219] ; perc_recovery_a_to_b_mean = 105.0

Form: molecule = CC(C)[C@@H](Nc1ncnc2[nH]c(-c3cnn(C)c3C#N)cc12)c1ccc2c(n1)NC(=O)CO2 [ASAP-0008644] ; perc_recovery_a_to_b_mean = 91.2

Form: molecule = CNC(=O)c1c[nH]c2ncnc(N[C@H](c3ccc4c(c3)S(=O)(=O)CCC4)C(C)C)c12 (single isomer, unassigned) [ASAP-0011153] ; perc_recovery_a_to_b_mean = 92.7

Form: molecule = Cn1ncc(-c2cc3c(N[C@@H](c4ccc5c(c4)OCCO5)C(C)(C)C)ncnc3[nH]2)c1C#N (racemic) ; perc_recovery_a_to_b_mean = 39.4

Form: molecule = CC(C)[C@@H](Nc1ncnc2[nH]c(-c3cnn(CC(=O)N(C)C)c3)cc12)c1ccc2c(c1)S(=O)(=O)CCC2 (racemic) ; perc_recovery_a_to_b_mean = 85.0

Form: molecule = CC(C)[C@@H](Nc1ncnc2[nH]c(-c3cnn(C)c3C#N)cc12)c1ccc2c(c1)S(=O)(=O)CCC2 [ASAP-0008651] ; perc_recovery_a_to_b_mean = 81.6

Form: molecule = CC(C)[C@@H](Nc1ncnc2[nH]c(-c3cnn(C)c3C#N)cc12)c1ccc2c(n1)NC(=O)CO2 (single isomer, unassigned) [ASAP-0011180] ; perc_recovery_a_to_b_mean = 84.8

Form: molecule = CC(C)[C@H](CO)Nc1ncnc2[nH]ccc12 ; perc_recovery_a_to_b_mean = 89.0

Form: molecule = CC(C(=O)O)C(NC(=O)c1ncnc2[nH]ccc12)c1ccc(Br)cc1 (mixture of isomers) ; perc_recovery_a_to_b_mean = 93.4
